Assay: Plasma and tissue distribution in SD rats
Format: in vivo
Settings: male, Sprague-Dawley; M SD rat, Skin
observationType: Tmax (min)
Unit min implied. Number only.

In: # return recorded Tmax for entry C[C@@H](c1ccc(Nc2cc(Nc3ncc(F)cc3S(C)(=O)=O)ncn2)nc1)N1CC2(COC2)C1
Out: 30

###

Assay: Mouse plasma pharmacokinetics, PO 5 mg/kg
Format: in vivo
Procedure: The following example describes the methods used to evaluate the pharmacokinetics of TYK2 inhibitors in vivo following dosing of a compound of the invention. The pharmacokinetics of test compounds were evaluated in either male CD-1 mice or male C57BL/6 mice when administered by oral gavage and IV bolus injection. […] The plasma samples were analyzed by LC-MS/MS and the concentration of test compound at each time point was determined by linear regression. […]
observationType: Half-life (t1/2)

CC(c1ccc(Nc2cc(Nc3ncccc3S(C)(=O)=O)ncn2)nc1C(F)(F)F)N1CC2(COC2)C1 (stereo in doubt)	††† (†††: >1.5)
C[C@@H](c1ccc(Nc2cc(Nc3ncc(F)cc3S(C)(=O)=O)ncn2)nc1)N1CC2(COC2)C1	†† (††: 1.0-1.5)
CS(=O)(=O)c1cccnc1Nc1cc(Nc2ccc3c(n2)CCCC3N2CC3(COC3)C2)ncn1 (stereo in doubt)	††† (†††: >1.5)
C[C@@H](c1ccc(Nc2cc(Nc3ncccc3S(C)(=O)=O)ncn2)nc1)N1CC2(COC2)C1	†† (††: 1.0-1.5)

###

Experiment: Plasma and tissue distribution in SD rats
Format: in vivo
Conditions: female SD rat, PO 10 mg/kg, Spleen
Protocol: The following Example describes the methods and data used to evaluate the tissue distribution of TYK2 inhibitors following the administration of either compound 1 or compound 2. Thirty (30, 15/sex) SD rats supplied by Beijing Vital River Laboratory Animal Technology Co., Ltd. were used in this study. […] The room (s) was controlled and monitored for relative humidity (targeted mean range 40% to 70%) and temperature (targeted mean range 20° C. to 26° C.) with 15 or above air changes/hour. […]
observationType: Cmax (ng/g)
Unit ng/g implied. Number only.

In: # return recorded Cmax for entry C[C@@H](c1ccc(Nc2cc(Nc3ncccc3S(C)(=O)=O)ncn2)nc1)N1CC2(COC2)C1
Out: 4430

###

Assay: Plasma and tissue distribution in SD rats
Type: in vivo
Settings: Sprague-Dawley, rat, skin, oral, SD rat, Skin; read-out: Tissue/Plasma Ratio (AUCinf)
observationType: Kp
// return a plain number; no unit text

C[C@@H](c1ccc(Nc2cc(Nc3ncc(F)cc3S(C)(=O)=O)ncn2)nc1)N1CC2(COC2)C1 [Compound 2]	2.5

Shift focus to the following entry.
In: # return recorded Kp for entry C[C@@H](c1ccc(Nc2cc(Nc3ncccc3S(C)(=O)=O)ncn2)nc1)N1CC2(COC2)C1 [Compound 1]
Out: 3.2

###

Test: Plasma and tissue distribution in SD rats
Type: in vivo
Conditions: female, SD, rat, spleen, po, 10 mg/kg, female SD rat, PO 10 mg/kg, Spleen; Tissue AUC0-last/Plasma AUC0-last; read-out: AUC Ratio
observationType: Kp
// return a plain number; no unit text

In: # return recorded Kp for entry C[C@@H](c1ccc(Nc2cc(Nc3ncccc3S(C)(=O)=O)ncn2)nc1)N1CC2(COC2)C1 [Compound 1]
Out: 5.73

###

Assay: Plasma and tissue distribution in SD rats
Format: in vivo
Conditions: male; M SD rat, Plasma
observationType: Cmax (ng/mL)
Unit ng/mL implied. Number only.

In: # return recorded Cmax for entry C[C@@H](c1ccc(Nc2cc(Nc3ncc(F)cc3S(C)(=O)=O)ncn2)nc1)N1CC2(COC2)C1
Out: 509

Numbers sourced from patent US20260048051A1.
